FYI, the data here is from the supplement of paper PMC10567573.

Measured protein stability index of individual entries
B1: BEX1 (parent)
chain: EENMERIGEEVRQLMEKLREKQLS

Variants of: B1
Test: protein stability index of a GFP-peptide fusion (GPS, HEK-293T) (PSI 1-6); higher = more stable;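 also: lentivirally expressed fusions sorted by FACS into six bins by GFP to DsRed ratio, PSI derived from sequencing read proportions per bin multiplied by bin number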
Conditions: c terminus: a fixed tail appended
measured metric: protein stability index

variant designation: M15N
readout value: 3.02
--
variant designation: E2M
readout value: 4.05
--
variant designation: K21W
readout value: 4.07
